Recorded IC50 for the following compounds
System: TGF-beta-induced phosphorylation of Smad2 (Ser465/467) and Smad3 (Ser423/425) in Mv1-Lu cells
Experiment: Inhibition of Smad2/3 phosphorylation in Mv1Lu cells (PathScan Phospho-Smad2 ELISA)
Assay type: cell-based, mink Mustela vison
Settings: Neogale vison, Mv1-Lu cells, TGF-beta 1 5 ng/ml, Phospho-Smad2/3 ELISA, read-out: TβR activity (Example 51)

Solved entries (count: 3):
O=[N+]([O-])c1ccc(-c2cc(-c3ccccc3F)nc3ncccc23)c2ccncc12 : < 1000 nM
O=c1c2cnccc2c(-c2cc(-c3cc(Cl)ccc3F)nc3ncccc23)cn1CC(O)CO (stereo not shown) : < 1000 nM
Cc1cccc(-c2cc(-c3nccc4cnccc34)c3cccnc3n2)n1 : 1000 to 10000 nM

// query Would you mind telling me what IC50 value was observed for `Nc1ncnc2c(-c3cc(-c4ccccc4F)nc4ncccc34)cccc12` ?
// result 1000 to 10000 nM

----------
As shown below, each of these molecules has a reported IC50 value.
Test system: TGF-beta-induced phosphorylation of Smad2 (Ser465/467) and Smad3 (Ser423/425) in Mv1-Lu cells
Test: Inhibition of Smad2/3 phosphorylation in Mv1Lu cells (PathScan Phospho-Smad2 ELISA)
Type: cell-based, mink Mustela vison
Conditions: Neogale vison, Mv1-Lu cells, TGF-beta 1 5 ng/ml, Phospho-Smad2/3 ELISA, read-out: TβR activity (Example 51)

Consider the reported IC50 for these molecules:
Fc1ccc(Cl)cc1-c1cc(-c2cncc3ncccc23)c2cccnc2n1 : 1000 to 10000 nM
O=c1c2cnccc2c(-c2cc(-c3cc(Cl)ccc3F)nc3ncccc23)cn1CCCO : < 1000 nM
Fc1ccc(Cl)cc1-c1cc(-c2ccc(OCCN3CCCC3)c3cnccc23)c2cccnc2n1 : < 1000 nM
Fc1ccc(Cl)cc1-c1cc(-c2coc3cnccc23)c2cccnc2n1 : < 1000 nM
Cn1cc(-c2ccc(-c3cc(-c4ccccc4F)nc4ncccc34)c3ccncc23)cn1 : < 1000 nM

Consider the additional molecule presented here.
// query Dear colleague, I am looking for the recorded IC50 of the following molecule: `Nc1nccc2c(-c3cc(-c4cc(F)ccc4F)nc4ncccc34)cccc12`
// result < 1000 nM

----------
System: TGF-beta-induced phosphorylation of Smad2 (Ser465/467) and Smad3 (Ser423/425) in Mv1-Lu cells
Experiment: Inhibition of Smad2/3 phosphorylation in Mv1Lu cells (PathScan Phospho-Smad2 ELISA)
Assay type: cell-based, mink Mustela vison
Conditions: Neogale vison, Mv1-Lu cells, TGF-beta 1 5 ng/ml, Phospho-Smad2/3 ELISA, read-out: TβR activity (Example 51)
The reader will find reported IC50 values listed item by item below.

// worked examples, IC50 included
Nc1nccc2c(-c3cc(-c4cc(Cl)ccc4F)nc4ncccc34)nccc12 : < 1 µM
Fc1ccc(C(F)(F)F)cc1-c1cc(-c2c[nH]c3cnccc23)c2cccnc2n1 : < 1 µM

Now look at this entry.
// query Could you share which IC50 value was measured for `Fc1ccccc1-c1cc(-c2cnc(OCCN3CCOCC3)c3cnccc23)c2cccnc2n1` ?
// result 1 to 10 µM
